Let's go through some IC50 measurements on hα2B receptor (Homo sapiens, UniProt P18089) together.
Sequence (P18089 whole entry): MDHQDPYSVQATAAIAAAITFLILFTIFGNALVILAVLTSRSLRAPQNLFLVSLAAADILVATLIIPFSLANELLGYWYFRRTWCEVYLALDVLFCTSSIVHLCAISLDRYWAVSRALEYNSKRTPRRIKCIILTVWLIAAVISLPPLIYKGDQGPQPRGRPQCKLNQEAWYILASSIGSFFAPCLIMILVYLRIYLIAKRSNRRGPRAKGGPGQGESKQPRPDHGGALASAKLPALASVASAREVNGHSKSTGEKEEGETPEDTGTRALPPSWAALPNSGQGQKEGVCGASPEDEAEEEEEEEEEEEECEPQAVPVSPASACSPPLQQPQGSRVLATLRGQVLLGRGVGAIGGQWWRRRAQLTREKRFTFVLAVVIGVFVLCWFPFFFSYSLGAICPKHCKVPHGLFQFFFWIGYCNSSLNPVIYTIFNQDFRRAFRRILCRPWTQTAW
Express it in nM; write the number only.

Query block: Please report the recorded IC50 for CCNC(=O)OCCOc1cccc2c1OCC1C2=NOC1CN1CCN(CC(C)=Cc2ccccc2)CC1 (stereo not shown) [Compound 10] .
Result block: 5.01

Query block: Please report the recorded IC50 for CC(=Cc1ccccc1)CN1CCN(CC2ON=C3c4cccc(NCc5ccccc5)c4OCC32)CC1 (stereo not shown) [Compound 23] .
Result block: 50.1

Query block: Please report the recorded IC50 for COC(=O)c1c(OC)c(OC)cc2c1OCC1C2=NOC1CN1CCN(C/C(C)=C/c2ccccc2)CC1 (single isomer, unassigned) [Compound 5] .
Result block: 5.01

Query block: Please report the recorded IC50 for COc1cc2c(c(Nc3ccncc3)c1OC)OC[C@@H]1C2=NO[C@H]1CN1CCN(C/C(C)=C/c2ccc(F)cc2)CC1 (relative stereo) [Compound 21] .
Result block: 15.8

###

metric-name: IC50 (nM)
Express it in nM; write the number only.

Query block: Param readout= IC50; system= hα2C receptor (Homo sapiens, UniProt P18825); entry= COc1cc2c(c(N3CCN(C)CC3)c1OC)OC[C@@H]1C2=NO[C@H]1CN1CCN(C/C(C)=C/c2ccccc2)CC1 (single isomer, unassigned) ; returns value.
Result block: 0.794

Query block: Param readout= IC50; system= hα2C receptor (Homo sapiens, UniProt P18825); entry= C/C(=C\c1ccccc1)CN1CCN(C[C@@H]2ON=C3c4cccc(O)c4OC[C@H]32)CC1 (relative stereo) ; returns value.
Result block: 2

Query block: Param readout= IC50; system= hα2C receptor (Homo sapiens, UniProt P18825); entry= COc1cc2c(c(C#N)c1OC)OCC1C2=NOC1CN1CCN(CC(C)=Cc2ccc(F)cc2)CC1 (stereo not drawn) ; returns value.
Result block: 15.8

###

- experimental-system: h5-HT transporter (Homo sapiens, UniProt P31645)
- Construct: Human platelet membranes (Oceanix Biosciences Corporation, Hanover, Md., USA) were thawed; tissue Oceanix Biosciences Corporation; host or cells: human platelet membranes
- Sequence (P31645 whole entry): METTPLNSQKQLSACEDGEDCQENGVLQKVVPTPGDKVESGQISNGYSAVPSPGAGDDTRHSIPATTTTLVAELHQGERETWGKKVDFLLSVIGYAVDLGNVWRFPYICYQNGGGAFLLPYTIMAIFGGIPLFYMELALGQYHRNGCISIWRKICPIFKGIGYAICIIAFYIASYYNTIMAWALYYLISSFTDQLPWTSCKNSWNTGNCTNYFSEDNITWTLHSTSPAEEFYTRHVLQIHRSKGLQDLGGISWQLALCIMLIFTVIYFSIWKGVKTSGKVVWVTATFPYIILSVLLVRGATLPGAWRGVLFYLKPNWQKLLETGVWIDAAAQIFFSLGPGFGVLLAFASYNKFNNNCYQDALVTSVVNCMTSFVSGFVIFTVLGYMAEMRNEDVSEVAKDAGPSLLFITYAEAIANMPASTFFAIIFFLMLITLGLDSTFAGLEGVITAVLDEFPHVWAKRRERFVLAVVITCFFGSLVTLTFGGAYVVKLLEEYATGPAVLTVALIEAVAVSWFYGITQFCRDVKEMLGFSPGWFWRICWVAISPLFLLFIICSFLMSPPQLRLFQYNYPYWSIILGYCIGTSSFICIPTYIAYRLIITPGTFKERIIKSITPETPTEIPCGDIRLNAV
- protocol-description: Radioligand binding experiment for 5-HT transporter ([3H]paroxetine)
- setup-conditions: human platelet membranes; [3H]paroxetine 0.5 nM; read-out: 5-HTT (converted)
The label fulfilled is reserved for IC50 strictly under 0.05 µM; not fulfilled covers values equal to or above it.

Query block: Here's an entry: CC(=Cc1ccccc1)CN1CCN(CC2ON=C3c4c(O)cccc4OCC32)CC1 (centres unmarked) . Is its IC50 below 0.05 µM?
Result block: not fulfilled

Query block: Here's an entry: COc1cc2c(c(N3CCC3=O)c1OC)OCC1C2=NOC1CN1CCN(CC(C)=Cc2ccc(F)cc2)CC1 (centres unmarked) . Is its IC50 below 0.05 µM?
Result block: not fulfilled

Query block: Here's an entry: COc1cc2c(c(C#N)c1OC)OCC1C2=NOC1CN1CCN(CC(C)=Cc2ccc(F)cc2)CC1 (centres unmarked) . Is its IC50 below 0.05 µM?
Result block: not fulfilled

Query block: Here's an entry: COCC(=O)OCCOc1cccc2c1C1=NOC(CN3CCN(CC(C)=Cc4ccccc4)CC3)C1CO2 (centres unmarked) . Is its IC50 below 0.05 µM?
Result block: not fulfilled

Query block: Here's an entry: CCNC(=O)Nc1cccc2c1OCC1C2=NOC1CN1CCN(CC(C)=Cc2ccccc2)CC1 (centres unmarked) . Is its IC50 below 0.05 µM?
Result block: fulfilled

These measurements were taken from patent US7462717B2.
